Tested on: AGS gastric cancer cell
Experiment: MTT anti-proliferative assay, AGS
Assay type: cell-based, human
Details: MTT, 48 h
pIC50: −log10 of the molar value.
Item-by-item account of pIC50

Sample records with pIC50:
compound="N#C/C(=C\\c1ccco1)c1ccc(OC(F)(F)F)cc1 [Compound 1a3a]" result="< 4.00"
compound="COc1ccc(/C=C(\\C#N)c2cccc(OC(F)(F)F)c2)cc1 [Compound 1b2j]" result="< 4.00"
compound="COc1ccc(/C=C(\\C#N)c2ccccc2OC(F)(F)F)cc1 [Compound 1c2e]" result=5.12
compound="N#C/C(=C\\c1ccc(/C=C(\\C#N)c2ccc(C(F)(F)F)cc2)cc1)c1ccc(C(F)(F)F)cc1 [Compound 1f2w]" result="< 4.00"

Please give the measured pIC50 for this compound: CCN(CC)c1ccc(/C=C(\C#N)c2ccc(OC)cc2)cc1 [Compound 1e2c] < 4.00

Subsequent entry: COc1ccc(/C=C(\C#N)c2ccc(OC(F)(F)F)cc2)cc1 [Compound 1a2j] 4.68

----------
System: MGC-803 late stage differentiation gastric cancer cell
Assay: MTT anti-proliferative assay, MGC-803
Assay type: cell-based, human
Settings: MTT, 48 h
pIC50: −log10 of the molar value.
Item-by-item account of pIC50

Sample records with pIC50:
cpdsmiles=CCCCCOc1ccc(/C=C(\C#N)c2ccc(OC(F)(F)F)cc2)cc1 propertylabel=pIC50 result="< 4.00"
cpdsmiles=Cc1ccc(/C=C(\C#N)c2ccc(OC(F)(F)F)cc2)cc1 propertylabel=pIC50 result="< 4.00"

I'm curious: which pIC50 was measured for N#C/C(=C\c1ccccc1)c1ccccc1OC(F)(F)F tested on MGC-803 late stage differentiation gastric cancer cell? < 4.00

Subsequent entry: Cc1ccc(/C=C(\C#N)c2cccc(OC(F)(F)F)c2)cc1 4.95

Subsequent entry: N#C/C(=C\c1ccccc1Br)c1ccc(C(F)(F)F)cc1 < 4.00

Subsequent entry: N#C/C(=C\c1ccccn1)c1cccc(OC(F)(F)F)c1 4.68

Subsequent entry: N#C/C(=C\c1ccccn1)c1ccc(C(F)(F)F)cc1 < 4.00

Subsequent entry: COc1cccc(/C=C(\C#N)c2ccc(OC(F)(F)F)cc2)c1 < 4.00

----------
Test system: MGC-803 late stage differentiation gastric cancer cell
Experiment: MTT anti-proliferative assay, MGC-803
Type: cell-based, human
Conditions: MTT, 48 h
Item-by-item account of IC50

Please give the measured IC50 for this compound: N#C/C(=C\c1cccc(F)c1)c1ccc(C(F)(F)F)cc1 [Compound 1f2h] > 100 µM

----------
Item-by-item account of pIC50
Test system: AGS gastric cancer cell
Assay: MTT anti-proliferative assay, AGS
Format: cell-based, human
Conditions: MTT, 48 h
The value called pIC50 is obtained by taking minus log10 of the concentration in mol/L.

Sample records with pIC50:
cpdsmiles=N#C/C(=C\c1ccc(N2CCOCC2)cc1)c1cccc(OC(F)(F)F)c1 propertylabel=pIC50 number=4.62
cpdsmiles=COc1cccc(/C=C(\C#N)c2ccc(C(F)(F)F)cc2)c1 propertylabel=pIC50 number=4.11
cpdsmiles=CN(C)c1ccc(/C=C(\C#N)c2ccc(OC(F)(F)F)cc2)cc1 propertylabel=pIC50 number=4.16
cpdsmiles=N#C/C(=C\c1ccc(F)cc1)c1ccc(OC(F)(F)F)cc1 propertylabel=pIC50 number=4.88

I'm curious: which pIC50 was measured for CC(C)c1ccc(/C=C(\C#N)c2ccc(OC(F)(F)F)cc2)cc1 tested on AGS gastric cancer cell? 5.06

Subsequent entry: Cc1ccc(/C(C#N)=C/c2ccc(N(C)C)cc2)cc1 4.64

----------
Item-by-item account of IC50
Tested on: HepG2 hepatoma cell
Assay: MTT anti-proliferative assay, HepG2
Type: cell-based, human
Settings: MTT, 48 h; read-out: IC50 HepG-2

cpdsmiles=N#C/C(=C\c1c(F)cccc1Cl)c1ccc(C(F)(F)F)cc1 propertylabel=IC50 result="> 100 µM"

Please give the measured IC50 for this molecule: N#C/C(=C\c1ccccc1)c1ccc(OC(F)(F)F)cc1 > 100 µM

Subsequent entry: N#C/C(=C\c1ccccc1)c1cccc(OC(F)(F)F)c1 > 100 µM

Subsequent entry: CCN(CC)c1ccc(/C=C(\C#N)c2ccc(OC)cc2)cc1 > 100 µM

Subsequent entry: CCc1ccc(/C=C(\C#N)c2ccc(C(F)(F)F)cc2)cc1 > 100 µM

Subsequent entry: N#C/C(=C\c1ccc(Cl)cc1)c1cccc(OC(F)(F)F)c1 > 100 µM

Subsequent entry: N#C/C(=C\c1ccc(N2CCCC2)cc1)c1ccc(OC(F)(F)F)cc1 > 100 µM

Subsequent entry: CC(C)c1ccc(/C=C(\C#N)c2cccc(OC(F)(F)F)c2)cc1 > 100 µM

Subsequent entry: CCN(CC)c1ccc(/C=C(\C#N)c2cc(OC)c(OC)c(OC)c2)cc1 > 100 µM

Subsequent entry: COc1ccc(/C(C#N)=C/c2ccc(N(C)C)cc2)cc1 > 100 µM

Subsequent entry: CC(C)c1ccc(/C=C(\C#N)c2ccc(OC(F)(F)F)cc2)cc1 > 100 µM

Subsequent entry: CN(C)c1ccc(/C=C(\C#N)c2cccc(OC(F)(F)F)c2)cc1 42.3 µM

Subsequent entry: COc1cccc(/C=C(\C#N)c2ccc(C(F)(F)F)cc2)c1 > 100 µM

Subsequent entry: COc1ccc(/C(C#N)=C/c2cc(OC)c(OC)c(OC)c2)cc1 > 100 µM

Subsequent entry: N#C/C(=C\c1ccc(Cl)cc1)c1ccccc1OC(F)(F)F 70.5 µM

Subsequent entry: Cc1ccc(/C=C(\C#N)c2ccc(C(F)(F)F)cc2)cc1 > 100 µM

Subsequent entry: Cc1cccc(/C=C(\C#N)c2ccc(OC(F)(F)F)cc2)c1 > 100 µM

----------
Item-by-item account of IC50
Test system: HCT116 colectal cancer cell
Assay: MTT anti-proliferative assay, HCT116
Assay type: cell-based, human
Conditions: Homo sapiens, HCT-116; MTT, 48 h
Kindly provide the numeric value in µM only, without the unit symbol.

Sample records with IC50:
compound=N#C/C(=C\c1ccc(/C=C/C(=O)c2ccc(Br)cc2)cc1)c1ccc(OC(F)(F)F)cc1 number=35.3
compound=COc1ccc(C(=O)/C=C/c2ccc(/C=C(\C#N)c3ccc(OC(F)(F)F)cc3)cc2)cc1 number=56.3
compound="COc1ccc(/C=C\\c2cc(OC)c(OC)c(OC)c2)cc1O [CA-4, combretastatin A-4, reference compound]" number=0.16

I'm curious: which IC50 was measured for Oc1ccc(/C=C/c2cc(O)cc(O)c2)cc1 [Resveratrol, resveratrol, reference compound] tested on HCT116 colectal cancer cell? 16.7

----------
Item-by-item account of IC50
System: L-02 normal liver cell
Test: MTT assay, L-02 normal cells
Assay type: cell-based, human
Conditions: 48 h

molecule="N#C/C(=C\\c1ccccc1)c1ccccc1OC(F)(F)F [Compound 1c2a]" result="> 100 µM"
molecule="CCc1ccc(/C=C(\\C#N)c2cccc(OC(F)(F)F)c2)cc1 [Compound 1b2f]" result="> 100 µM"
molecule="COc1ccc(/C=C(\\C#N)c2cccc(OC(F)(F)F)c2)cc1 [Compound 1b2j]" result="> 100 µM"
molecule="COc1ccc(/C=C(\\C#N)c2ccccc2OC(F)(F)F)cc1 [Compound 1c2e]" result="36.1 µM"

Please give the measured IC50 for this molecule: N#C/C(=C\c1ccco1)c1ccc(OC(F)(F)F)cc1 [Compound 1a3a] > 100 µM

Subsequent entry: N#C/C(=C\c1ccc(N2CCCCC2)cc1)c1ccc(OC(F)(F)F)cc1 [Compound 1a2u] > 100 µM

Subsequent entry: CC(C)c1ccc(/C=C(\C#N)c2ccc(OC(F)(F)F)cc2)cc1 [Compound 1a2g] > 100 µM

Subsequent entry: COc1cc(/C=C(\C#N)c2ccc(C(F)(F)F)cc2)cc(OC)c1OC [Compound 1f2u] > 100 µM

Subsequent entry: N#C/C(=C\c1ccc(N2CCOCC2)cc1)c1cccc(OC(F)(F)F)c1 [Compound 1b2i] 28.5 µM

----------
Item-by-item account of IC50
Test system: diffuse large B-cell lymphoma SU-DHL-10 cell
Assay: MTT anti-proliferative assay, SU-DHL-10
Assay type: cell-based, human
Details: MTT, 48 h; read-out: IC50 SU-DHL-10

Sample records with IC50:
compound="N#C/C(=C\\c1ccc(N2CCOCC2)cc1)c1cccc(OC(F)(F)F)c1 [Compound 1b2i]" propertylabel=IC50 result="53.6 µM"
compound="N#C/C(=C\\c1ccco1)c1ccc(C(F)(F)F)cc1 [Compound 1f3a]" propertylabel=IC50 result="> 100 µM"
compound="CC(C)c1ccc(/C=C(\\C#N)c2ccc(OC(F)(F)F)cc2)cc1 [Compound 1a2g]" propertylabel=IC50 result="27.3 µM"
compound="Cc1ccc(/C(C#N)=C/c2ccc(N(C)C)cc2)cc1 [Compound 1d2a]" propertylabel=IC50 result="19.9 µM"
compound="N#C/C(=C\\c1cccc(F)c1)c1ccc(C(F)(F)F)cc1 [Compound 1f2h]" propertylabel=IC50 result="58.4 µM"
compound="N#C/C(=C\\c1ccc(Br)cc1)c1ccc(C(F)(F)F)cc1 [Compound 1f2f]" propertylabel=IC50 result="> 100 µM"
compound="COc1cccc(/C=C(\\C#N)c2ccc(C(F)(F)F)cc2)c1 [Compound 1f2t]" propertylabel=IC50 result="> 100 µM"
compound="COc1cccc(/C=C(\\C#N)c2ccc(OC(F)(F)F)cc2)c1 [Compound 1a2k]" propertylabel=IC50 result="> 100 µM"
compound="N#C/C(=C\\c1ccccn1)c1cccc(OC(F)(F)F)c1 [Compound 1b3a]" propertylabel=IC50 result="59.7 µM"
compound="CN(C)c1ccc(/C=C(\\C#N)c2ccc(C(F)(F)F)cc2)cc1 [Compound 1f2a]" propertylabel=IC50 result="> 100 µM"

Please give the measured IC50 for this compound: CC(C)c1ccc(/C=C(\C#N)c2ccc(C(F)(F)F)cc2)cc1 [Compound 1f2q] 38.4 µM

Subsequent entry: CCN(CC)c1ccc(/C=C(\C#N)c2cc(OC)c(OC)c(OC)c2)cc1 [Compound 1g2b] 2.4 µM
